- test details: Half life in mouse liver homogenates at 100 uM by UPLC/MS analysis
- Format: ADME, tissue-based
Please respond with reported half-life at 100 µM for every item in the list.
Express it in min; write the number only.

Task: # return recorded half-life at 100 µM for entry `CC(C)[C@@H]1NC(=O)[C@]2(C)CSC(=N2)c2csc(n2)CNC(=O)C[C@@H](/C=C/CCS)OC1=O`
Result: 51

Task: # return recorded half-life at 100 µM for entry `C[C@@]12CSC(=N1)c1csc(n1)CNC(=O)C[C@@H](/C=C/CCS)OC(=O)CNC2=O`
Result: 32

###

- test details: Half life in mouse liver homogenates at 100 uM by UPLC/MS analysis
- Assay type: ADME, tissue-based
Please respond with reported half-life at 100 µM for every item in the list.

Task: # return recorded half-life at 100 µM for entry `CC(C)[C@H]1NC(=O)C(C)(C)NC(=O)c2csc(n2)CNC(=O)C[C@@H](/C=C/CCS)OC1=O`
Result: ≤ 5 min

Task: # return recorded half-life at 100 µM for entry `C[C@@]12CSC(=N1)c1csc(n1)CNC(=O)C[C@@H](/C=C/CCS)OC(=O)CCNC2=O`
Result: ≤ 5 min

Task: # return recorded half-life at 100 µM for entry CCCCCCCC(=O)SCC/C=C/[C@@H]1CC(=O)NCc2nc(cs2)C2=N[C@@](C)(CS2)C(=O)N[C@@H](C(C)C)C(=O)O1 [LARGAZOLE]
Result: ≤ 5 min
